# MEASUREMENT PROTOCOL: GSK_TCMDC: Inhibition Frequency Index (IFI). The number of non-kinase HTS assays where a compound showed > 50 % inhibition, expressed as a percentage of the number of such assays in which the compound was tested
# Assay type: functional
Whole data set: some 13,000 compounds, median “IFI” near 4, cut for the highest 2% near 17. The list comes from a sample in which the highest values are over-represented; it also holds close analogues and randomly drawn compounds.
QUANTITY NAME: IFI

INSERT INTO results (compound, recorded_value) VALUES
  ('O=C(Nc1ccc(C(=O)Nc2cccc(C3=NCCN3)c2)cc1)Nc1ccc(C2=NCCN2)cc1', '3.57%'),
  ('COc1cccc(OC)c1CN1CCC(N(C)CCCCCCCCN2CCC(OC(=O)Nc3ccccc3-c3ccccc3)CC2)CC1', '13.1%'),
  ('C[C@H](Cc1ccc(C[C@@H](C)NCC(O)c2cc(Cl)c(N)c(Cl)c2)cc1)NCC(O)c1cc(Cl)c(N)c(Cl)c1 (some centres not stated)', '9.35%'),
  ('C[C@H](Cc1ccc(C[C@@H](C)NC[C@H](O)c2cccc(Cl)c2)cc1)NC[C@H](O)COc1ccccc1', '7.91%'),
  ('Cc1ccc(NC(=O)Nc2ccccc2)cc1-c1ccc(C(=O)Nc2ccncc2)cc1', '25.7%'),
  ('Cc1ccc(NC(=O)c2ccc(Cl)cc2)cc1-c1ccc(C(=O)Nc2ccncc2)cc1', '15.5%'),
  ('N#Cc1cccc(C(=O)Nc2cccc(-c3ccc(C(=O)Nc4cccnc4)cc3)c2)c1', '7.46%'),
  ('Cc1ccc(C2(CN3CCC(NC(=O)c4n[nH]cc4Cl)CC3)CCCCC2)cc1', '8.33%'),
  ('C[C@H](Cc1ccc(OCCCCOc2ccc(C[C@@H](C)NC[C@H](O)c3cccc(Cl)c3)cc2)cc1)NC[C@H](O)c1cccc(Cl)c1', '11.6%'),
  ('Cc1ccc(NC(=O)Nc2cccc(Cl)c2)cc1-c1ccc(C(=O)Nc2ccncc2)cc1', '25.4%'),
  ('Clc1ccc(CNCCCCCCNCc2ccc(Cl)cc2)cc1', '11.3%'),
  ('C[C@H](Cc1ccc(OCCCOc2ccc(C[C@@H](C)NC[C@H](O)c3cccc(Cl)c3)cc2)cc1)NC[C@H](O)c1cccc(Cl)c1', '13.1%'),
  ('COc1c(C2CCN(CCN3CCC(CNC(=O)c4ccc(-c5ccc(C#N)cc5)cc4)CC3)CC2)ccc2c1CCCC2', '16.2%'),
  ('COc1ccccc1CCN(C)CCN1CCC(NC(=O)c2ccc(-c3ccc(C(F)(F)F)cc3)cc2)CC1', '6.19%'),
  ('COc1cccc(OC)c1CN1CCC(N(C)CCCCCCCCCN2CCC(OC(=O)Nc3ccccc3-c3ccccc3)CC2)CC1', '17.3%'),
  ('CN(C)C(CNC(=O)c1cc(-c2ccncc2)c(-c2ccc(NC(=O)Nc3cccc(Cl)c3)cc2)o1)c1ccccc1 (configuration not stated)', '8.11%'),
  ('COc1cccc2c1CCN(CCN1CCC(NC(=O)c3ccc(-c4cccc(Cl)c4Cl)cc3)CC1)C2', '7.63%');
